- Test system: HEK-293T
- Assay Notes: Multiplex assay against HEK293T
- Type: toxicity, cell-based
- Particulars: human, 12 h, 1 µM, compound concentration 1 uM, replicate 1
Metric: Population Healthy Nuclei (%)
Answers are plain numbers, in %.

Some solved cases for reference:
COc1ccc2[nH]c(I)c(CCNC(C)=O)c2c1 :: 80
CCc1nn2c(C)cc(C)nc2c1Cc1ccc(-c2nnc(C3CCNCC3)o2)cc1 :: 80
Cc1c(Cc2ccc3ccccc3n2)c2cc(F)ccc2n1CC(=O)O :: 80
O=c1nc2[nH]c3ccccc3nc-2c(=O)[nH]1 :: 77

Could you tell me which Population Healthy Nuclei (%) is on file for `COc1c(Nc2ccc(S(C)(=O)=O)nc2C)ncnc1OC1CCN(C(=O)OC(C)C)CC1` ?
78
